assay: Solubility of active agents in neat alkyl ketal esters (dissolution, storage at room temperature); conditions: solvent Et-LGK; insoluble, partially dissolved or precipitated on room temperature storage
Reported % solids in Et-LGK that did not (completely) dissolve or precipitated at room temperature values follow for various compounds
Give your result in % as a bare value.

Compound	Test result
COc1ccc(C(=O)c2ccccc2)c(O)c1	25
O=C(O)c1ccccc1O	20.8
COC1=C(OC)C(=O)C(C/C=C(\C)CC/C=C(\C)CC/C=C(\C)CC/C=C(\C)CC/C=C(\C)CC/C=C(\C)CC/C=C(\C)CC/C=C(\C)CC/C=C(\C)CCC=C(C)C)=C(C)C1=O	3.7

Please find the next compound below.
Query: Given the compound O=C(OOC(=O)c1ccccc1)c1ccccc1 [Benzoyl peroxide] , what is its reported % solids in Et-LGK that did not (completely) dissolve or precipitated at room temperature?
Response: 9.5

Values from patent US9549886B2
